Tested on: RPMI-8226
ASSAY EXPLANATION: NCI tumour cell line growth inhibition, 48 h
Activity calls are given as the source filed them. No stated cut-off is given here; in the data, active = GI50 up to about 1.1 µM and inactive = higher.
Hello, when you answer, please use one of the following outcomes: TRUE = active, FALSE = inactive

                             compound  answer_label
0  O=[N+]([O-])C=C1c2ccccc2-c2ccccc21         FALSE

In this assay, the call recorded for CC(C)CC1CC2C(=O)N(c3ccccc3)C(=O)C2c2[nH]c3ccccc3c21 (stereo unspecified) was what?
FALSE

* * *

System: CCRF-CEM
ASSAY EXPLANATION: NCI tumour cell line growth inhibition, 48 h
The source made the active and inactive calls. Cut-off read from the data, not from the text of the source: active = GI50 up to about 1.1 µM and inactive = higher.
Hello, when you answer, please use one of the following outcomes: active, inactive

>>> df
                                   molecule  answer_label
0  COc1ccc(CN(CCN(C)C)c2ccccn2)cc1.Cn1c(=O)c2[nH]c(Br)nc2n(C)c1=O      inactive
1  O=C1C=CC(=O)[C@H]2C3C=CC(C4C3C3(Cl)C(Cl)=C(Cl)[C@]4(Cl)C3(Cl)Cl)[C@@H]12 (stereo partly specified)      inactive
2  CN1C(=O)c2ccccc2OC12C=Cc1ccc(O)cc1O2 (stereo unspecified)      inactive
3     CN(C)CCc1ccnc2nc(-c3ccc4ccccc4c3)cn12      inactive
4  C#CC(C)(C)Oc1cc(OC)c2c(=O)c3ccccc3n(C)c2c1      inactive
5      CCn1c(=O)c2nc(SC)sc2n(-c2ccccc2)c1=S      inactive
6  COc1cc2cc(C(=O)N3CC(CCl)c4ccc(NCCN)cc43)[nH]c2c(OC)c1OC (stereo unspecified)        active
7             Cn1c(=O)cc2[nH]c3ccccc3n2c1=O      inactive

In this assay, the call recorded for C=Cc1ccccc1C1(O)C=CC(OC)(OC)C=C1 was what?
inactive

In this assay, the call recorded for CC1CC(Br)C(=O)O1 (stereo unspecified) was what?
inactive

In this assay, the call recorded for COC1CCC(=C2C(=O)OC(C)(C)OC2=O)N1 (stereo unspecified) was what?
inactive
